Species: Rattus norvegicus
Assay: DrugMatrix - Regimen: Daily Repeat
Format: toxicity, organism-based, Sprague-Dawley
Design: regimen Daily Repeat, gender Male, age 6-8 weeks
Settings: in vivo, po, 0 mg/kg, 72 h, tissue Blood, route oral GAVAGE, dose level Control, time 3 day, vehicle .5 % CMC
measurement.label: PLATELET COUNT (x10E3/uL)
Note: unit x10E3/uL is implicit; provide only the numeric part.

Reported PLATELET COUNT for NC(=O)N1c2ccccc2CC(=O)c2ccccc21 [OXCARBAZEPINE] : what is it?
1250.83

Please report the recorded PLATELET COUNT for CCC1=C(C)CN(C(=O)NCCc2ccc(S(=O)(=O)NC(=O)N[C@H]3CC[C@H](C)CC3)cc2)C1=O [GLIMEPIRIDE] .
1118.17

Would you mind telling me what PLATELET COUNT value was observed for C#C[C@]1(O)CC[C@H]2[C@@H]3CCC4=CC(=O)CC[C@]4(C)[C@H]3CC[C@@]21C ?
1378.2

Given C[C@H]1[C@H](NC(=O)/C(=N\OC(C)(C)C(=O)O)c2csc(N)n2)C(=O)N1S(=O)(=O)O , state its recorded PLATELET COUNT.
1239.5

Would you kindly share the measured PLATELET COUNT for CCn1cc(C(=O)O)c(=O)c2cc(F)c(N3CCNC(C)C3)c(F)c21 (configuration not stated) ?
1386

Given CCCNC(=O)NS(=O)(=O)c1ccc(Cl)cc1 [CHLORPROPAMIDE] , state its recorded PLATELET COUNT.
1327.5

Tell me the measured PLATELET COUNT of COc1ccc2c(c1OC)C(=O)O[C@@H]2[C@H]1c2c(cc3c(c2OC)OCO3)CCN1C , please.
1378.2

Please look up its PLATELET COUNT: CN1C(=O)CN=C(c2ccccc2)c2cc([N+](=O)[O-])ccc21
1217.17

Tell me the measured PLATELET COUNT of C[C@@H]1O[C@@H](O[C@H]2C[C@@H](O)[C@]3(CO)[C@H]4[C@H](O)C[C@]5(C)[C@@H](C6=CC(=O)OC6)CC[C@]5(O)[C@@H]4CC[C@]3(O)C2)[C@H](O)[C@H](O)[C@H]1O , please.
1310.5

Look at this compound and give its reported PLATELET COUNT. COc1ccccc1[N+](=O)[O-]
1122.17

PLATELET COUNT lookup needed for C[C@@](Cc1ccc(O)c(O)c1)(NN)C(=O)O.O , thanks.
1239.5

Look up PLATELET COUNT: CCCCC1=NC2(CCCC2)C(=O)N1Cc1ccc(-c2ccccc2-c2nnn[nH]2)cc1
1093.17

Give the measured PLATELET COUNT of CCOc1nc2cccc(C(=O)O)c2n1Cc1ccc(-c2ccccc2-c2nnn[nH]2)cc1 .
866.17

Given CN(C)C(=O)C(CCN1CCC(O)(c2ccc(Cl)cc2)CC1)(c1ccccc1)c1ccccc1 [LOPERAMIDE] , state its recorded PLATELET COUNT.
1118.17

Return reported PLATELET COUNT; argument: COc1cc(OC)c(C(=O)CCCN2CCCC2)c(OC)c1
1162.33

For C[C@]12CC[C@@H]3c4ccc(O)cc4CC[C@H]3[C@@H]1C[C@@H](O)[C@@H]2O , what is its reported PLATELET COUNT?
1342

// lookup PLATELET COUNT for CN1CCN(C2=Nc3cc(Cl)ccc3Nc3ccccc32)CC1
1327.5

----------
For each of the compounds below, state its LEUKOCYTE COUNT.
Species: Rattus norvegicus
Experiment: DrugMatrix - Regimen: Daily Repeat
Type: toxicity, organism-based, Sprague-Dawley
Parameters: regimen Daily Repeat, gender Male, age 6-8 weeks
Conditions: in vivo, po, 0 mg/kg, 72 h, tissue Blood, route oral GAVAGE, dose level Control, time 3 day, vehicle .5 % CMC
State just the number; it will be interpreted in x10E3/uL.

I'd like to know its LEUKOCYTE COUNT. The compound in question is C#C[C@]1(O)CC[C@H]2[C@@H]3CCC4=CC(=O)CC[C@]4(C)[C@H]3CC[C@@]21C
9.78

# query: LEUKOCYTE COUNT of entry C[C@@H]1O[C@@H](O[C@H]2C[C@@H](O)[C@]3(CO)[C@H]4[C@H](O)C[C@]5(C)[C@@H](C6=CC(=O)OC6)CC[C@]5(O)[C@@H]4CC[C@]3(O)C2)[C@H](O)[C@H](O)[C@H]1O
11.5

For the compound shown here, C[C@@](Cc1ccc(O)c(O)c1)(NN)C(=O)O.O , give the reported LEUKOCYTE COUNT.
16.17

So what does the record say about LEUKOCYTE COUNT for CCCNC(=O)NS(=O)(=O)c1ccc(Cl)cc1 [CHLORPROPAMIDE] ?
11.13

// returns reported LEUKOCYTE COUNT for input CN1C(=O)CN=C(c2ccccc2)c2cc([N+](=O)[O-])ccc21
9.83

Can you look up the measured LEUKOCYTE COUNT of CCC1=C(C)CN(C(=O)NCCc2ccc(S(=O)(=O)NC(=O)N[C@H]3CC[C@H](C)CC3)cc2)C1=O [GLIMEPIRIDE] for me?
13.57

Fill blank: measured LEUKOCYTE COUNT of the compound C[C@H]1[C@H](NC(=O)/C(=N\OC(C)(C)C(=O)O)c2csc(N)n2)C(=O)N1S(=O)(=O)O is ____.
16.17

Given the compound CCOc1nc2cccc(C(=O)O)c2n1Cc1ccc(-c2ccccc2-c2nnn[nH]2)cc1 , what is its reported LEUKOCYTE COUNT?
9.93

Recorded LEUKOCYTE COUNT for COc1ccc2c(c1OC)C(=O)O[C@@H]2[C@H]1c2c(cc3c(c2OC)OCO3)CCN1C , please?
9.78

Data request, read-out LEUKOCYTE COUNT, for COc1ccccc1[N+](=O)[O-]
16.87

// lookup LEUKOCYTE COUNT for CCn1cc(C(=O)O)c(=O)c2cc(F)c(N3CCNC(C)C3)c(F)c21 (configuration not stated)
13

Can you look up the measured LEUKOCYTE COUNT of CN(C)C(=O)C(CCN1CCC(O)(c2ccc(Cl)cc2)CC1)(c1ccccc1)c1ccccc1 [LOPERAMIDE] for me?
13.57

Bench note: what LEUKOCYTE COUNT did C[C@]12CC[C@@H]3c4ccc(O)cc4CC[C@H]3[C@@H]1C[C@@H](O)[C@@H]2O show?
15.25

Given the entry COc1cc(OC)c(C(=O)CCCN2CCCC2)c(OC)c1 , report its measured LEUKOCYTE COUNT.
12.4

Item under review: CN1CCN(C2=Nc3cc(Cl)ccc3Nc3ccccc32)CC1 . Reported LEUKOCYTE COUNT?
11.13

// query LEUKOCYTE COUNT value for entry NC(=O)N1c2ccccc2CC(=O)c2ccccc21 [OXCARBAZEPINE]
13.4

// LEUKOCYTE COUNT lookup, key: CCCCC1=NC2(CCCC2)C(=O)N1Cc1ccc(-c2ccccc2-c2nnn[nH]2)cc1
9.05

----------
I'd be grateful if you could share measured SODIUM for these entries.
Species: Rattus norvegicus
Assay: DrugMatrix - Regimen: Daily Repeat
Assay type: toxicity, organism-based, Sprague-Dawley
Design: regimen Daily Repeat, gender Male, age 6-8 weeks
Conditions: in vivo, po, 0 mg/kg, 120 h, tissue Plasma, route oral GAVAGE, dose level Control, time 5 day, vehicle .5 % CMC
Output spec: scalar in MEQ/L, unitless text.

Consider the molecule shown here: CCCCC1=NC2(CCCC2)C(=O)N1Cc1ccc(-c2ccccc2-c2nnn[nH]2)cc1 [IRBESARTAN] What is its recorded SODIUM?
139

Which SODIUM is reported for this molecule? NC(=O)N1c2ccccc2CC(=O)c2ccccc21 [OXCARBAZEPINE]
142.75

Quick one: SODIUM for C[C@@](Cc1ccc(O)c(O)c1)(NN)C(=O)O.O [CARBIDOPA] ?
143.8

# input molecule: CCOc1nc2cccc(C(=O)O)c2n1Cc1ccc(-c2ccccc2-c2nnn[nH]2)cc1 ; wanted: its SODIUM
143.35

Any idea what its SODIUM is? The molecule is COc1ccccc1[N+](=O)[O-] [2-NITROANISOLE]
143.45

----------
Species: Rattus norvegicus
Experiment: DrugMatrix - Regimen: Daily Repeat
Type: toxicity, organism-based, Sprague-Dawley
Set-up: regimen Daily Repeat, gender Male, age 6-8 weeks
Details: in vivo, iv, 0 mg/kg, 72 h, tissue Plasma, dose level Control, time 3 day, vehicle 100 % SALINE
measurement.label: TOTAL BILIRUBIN (mg/dL)
Write it as a number; the unit mg/dL goes unstated.

Could you tell me which TOTAL BILIRUBIN is on file for O=C(O)P(=O)(O)O ?
0.18

Fill blank: measured TOTAL BILIRUBIN of the compound O=c1[nH]c(=O)n([C@H]2C[C@H](O)[C@@H](CO)O2)cc1F is ____.
0.17

Need TOTAL BILIRUBIN of N=C(N)c1ccc(OCCCCCOc2ccc(C(=N)N)cc2)cc1 , thanks.
0.23

What measured TOTAL BILIRUBIN goes with C[N+](C)(C)CCOC(=O)CCC(=O)OCC[N+](C)(C)C.[Cl-].[Cl-] [SUCCINYLCHOLINE CHLORIDE] ?
0.23

Could you share which TOTAL BILIRUBIN value was measured for COc1cccc2c1C(=O)c1c(O)c3c(c(O)c1C2=O)C[C@@](O)(C(C)=O)C[C@@H]3O[C@H]1C[C@H](N)[C@H](O)[C@H](C)O1 ?
0.15
